Entries below carry reported T1/2 on D(2) dopamine receptor (Homo sapiens, UniProt P14416).
Sequence (P14416 whole entry): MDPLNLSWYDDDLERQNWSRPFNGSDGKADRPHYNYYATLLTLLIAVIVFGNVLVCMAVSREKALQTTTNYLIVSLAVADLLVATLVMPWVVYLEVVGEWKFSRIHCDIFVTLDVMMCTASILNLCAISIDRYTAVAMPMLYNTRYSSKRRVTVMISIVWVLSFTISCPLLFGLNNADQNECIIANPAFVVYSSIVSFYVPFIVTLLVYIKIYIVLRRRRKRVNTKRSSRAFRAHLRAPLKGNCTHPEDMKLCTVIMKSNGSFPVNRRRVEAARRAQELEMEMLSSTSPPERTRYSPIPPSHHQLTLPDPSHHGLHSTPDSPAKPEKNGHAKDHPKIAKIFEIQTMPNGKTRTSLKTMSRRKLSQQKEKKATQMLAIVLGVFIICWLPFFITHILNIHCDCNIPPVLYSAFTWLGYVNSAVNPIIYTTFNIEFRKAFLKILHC
Write the answer as a number in s, unit excluded.

Structure smiles string | T1/2 / s
OC1(c2ccc(Cl)cc2)CCN(CC/C=C/c2ccc(F)cc2)CC1 | 44.4
O=C(CCCN1CCC(O)(c2ccccc2Cl)CC1)c1ccc(F)cc1 | 36.6
O=C(CCCN1CCC(O)(c2ccccc2-c2ccccc2Cl)CC1)c1ccc(F)cc1 | 53.4
O=C(CCCN1CCC(c2ccccc2)CC1)c1ccc(F)cc1 | 59.4

I am curious: what T1/2 value has been reported for "O=C(CCCN1CCC(O)(c2cc(Cl)cc(Cl)c2)CC1)c1ccc(F)cc1" ?
116

I am curious: what T1/2 value has been reported for "O=C(CCCN1CCC(O)(c2cccc(Cl)c2Cl)CC1)c1ccc(F)cc1" ?
137

I am curious: what T1/2 value has been reported for "OC1(c2ccc(Cl)cc2)CCN(CCCC#Cc2ccc(F)cc2)CC1" ?
39

I am curious: what T1/2 value has been reported for "O=C(CCCN1CCN(c2ccc(Cl)cc2)CC1)c1ccc(F)cc1" ?
53.4

I am curious: what T1/2 value has been reported for "OC1(c2ccc(Cl)cc2)CCN(CC/C=C\c2ccc(F)cc2)CC1" ?
34.8

The measurements presented in this section are drawn from ChEMBL document CHEMBL4414605.
